tested on: Fibrinogen (Alexa647-labelled); assay: fibrinogen binders on compound microarrays, profiling panel, artefact control for SMM control-protein annotation, biochemical, small-molecule microarray, 635/667 nm fluorescence (AID 1131); conditions: fibrinogen-A647 binding fluorescence, higher = more signal;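 also: z-score merges 667 nm fluorescence with per-spot signal-to-noise over triplicate slides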
Outcome: Fulfilled for composite z-score of at least 0.7; Not fulfilled for anything lower.

# molecule, category
data = [
    ("C=CCNC(=O)[C@H]1[C@@H]2C(=O)O[C@@H](c3ccccc3)[C@@H](c3ccccc3)N2[C@@H](c2ccc(O)cc2)[C@]12C(=O)N(C(=O)OCCOC)c1ccc(C#CC3=CCCCC3)cc12", "Fulfilled"),
    ("Cc1cc2c(nc1C)CCCN2CC(C)ON=C1[C@H]2CCn3c(=O)n(-c4ccccc4)c(=O)n3[C@H]2[C@H](O)[C@@H]2O[C@H]12 (stereo partly specified)", "Not fulfilled"),
    ("CCOC(=O)C[C@H]1[C@H](OC(=O)c2ccc(C(=O)c3ccccc3)cc2)[C@@H](NC(=O)c2ccc(-c3ccccc3)cc2)c2cc(OCCCO)ccc2N1C(=O)c1ccc2ccccc2n1", "Fulfilled"),
    ("COC(=O)CC=C[C@@H](C)[C@H](OC)c1ccccc1Br", "Not fulfilled"),
    ("O=C(NN=C1C[C@@H](O)[C@@H](O)[C@@H]2[C@@H]3C(=O)N(c4cccc(Oc5ccccc5)c4)C(=O)[C@@H]3CC[C@H]12)OCc1ccccc1", "Fulfilled"),
]

---

biological target: Carbonic anhydrase 2 (Homo sapiens); assay: CAII small-molecule binders, profiling panel, biochemical, small-molecule microarray, Alexa647-labelled CAII (AID 1122); settings: CAII-A647 binding fluorescence, higher = more signal
Each entry below carries its reported composite z-score.
recorded.endpoint: composite z-score

# compound, value
rows = [
    ("COCCNC(=O)OCC1CCCC2(CC(OC(=O)NCCc3ccc(F)cc3)CC(CCC(=O)N[C@@H](C)C(=O)OC)O2)O1 (some centres undefined)", 0.245),
    ("O=C1[C@H]2[C@H]3[C@H](O)[C@H](O)CC(=NOCc4ccccc4)[C@@H]3CC[C@H]2C(=O)N1Cc1ccccc1", 0.251),
    ("[N-]=[N+]=Nc1ccccc1C[C@@]1(C(N)=O)N=C(c2ccc(OCCCO)cc2)O[C@@H]1c1ccccc1", 0.723),
    ("O=C1[C@H]2[C@H]3[C@H](O)[C@H](O)CC(=NOC[C@@H](O)COCc4ccco4)[C@H]3CC[C@H]2C(=O)N1Cc1ccc2c(c1)OCO2", -0.441),
    ("CCOC(=O)CCN1C(=O)[C@H]2[C@H]3[C@H](O)[C@H](O)CC(=NOC[C@@H](O)COCc4ccco4)[C@H]3CC[C@H]2C1=O", 0.0762),
    ("O=C1[C@H]2[C@H]3[C@H](O)[C@H](O)CC(=NO[C@@H]4O[C@H](CO)[C@@H](O)[C@H](O)[C@H]4O)[C@H]3CC[C@H]2C(=O)N1Cc1ccc2c(c1)OCO2", 0.173),
    ("CN1C(=O)C2C=CC(C(O)C(c3ccccc3)c3ccccc3)N(NC(=O)OC(C)(C)C)C2C1=O (centres undefined)", 0.793),
    ("CO[C@H]1O[C@H](CO)[C@@H](OC(=O)Nc2ccc3c(c2)OCO3)[C@H](OC(=O)Nc2ccccc2-c2ccccc2)[C@@H]1OC(=O)Nc1ccccc1-c1ccccc1", 0.543),
    ("O=C1[C@H]2[C@H]3[C@H](O)[C@H](O)CC(=NO[C@@H]4O[C@H](CO)[C@@H](O)[C@H](O)[C@H]4O)[C@@H]3CC[C@H]2C(=O)N1c1ccc(F)cc1F", -0.0947),
    ("CC(CCC(=O)OC[C@H]1O[C@H](C#Cc2ccccc2)C=C[C@@H]1Oc1ccc(C)cc1)=NOC[C@@H](O)COCc1ccco1", -0.451),
    ("COC(=O)CC=C[C@H](C)[C@H](CO)NS(=O)(=O)c1ccc(C)cc1", 0.131),
    ("COC(=O)[C@@]1(Cc2ccc(F)cc2)[C@@H]2C(=CC(=O)[C@H]2CC(=O)C(=O)N(C)C)CN1C(=O)c1ccccc1", 0.785),
    ("CC(CCN1CCc2nc(-c3ccccc3)c(-c3ccccc3)cc2C1)=NOC(C)CN1CCCCc2nc(C)c(C)cc21 (centres undefined)", 0.209),
    ("CCCC[C@@H](O)C1=C(C)C[C@H]2C(=O)N(Cc3ccccc3)C(=O)[C@H]2[C@H]1CO", -0.215),
]

---

# composite z-score listing for each entry below
biological target: Carbonic anhydrase 2 (Homo sapiens); assay: CAII small-molecule binders, profiling panel, biochemical, small-molecule microarray, Alexa647-labelled CAII (AID 1122); conditions: CAII-A647 binding fluorescence, higher = more signal

# compound, composite z-score
records = [
    ("COc1ccc(COC(=O)NN=C2C[C@@H](O)[C@@H](O)[C@@H]3[C@@H]4C(=O)N(Cc5ccc6c(c5)OCO6)C(=O)[C@@H]4CC[C@@H]23)cc1", -0.244),
    ("C=C(/C(=C/C[C@H](OC(=O)c1ccncc1)c1ccc(OCCO)cc1)c1cnc2ccccc2c1)C(C)C", 0.946),
    ("C=CC[C@@H]1C=C[C@H](ON=C(C)CCN2CCc3nc(CC)c(CC)cc3C2)[C@@H](CO)O1", 0.221),
    ("CO[C@H]1COC(=O)[C@H](C)COC(=O)CC=C[C@@H](C)[C@H](OC)COC(=O)CC=C[C@@H]1C", -0.405),
    ("O=C1[C@H]2[C@H]3[C@H](O)[C@H](O)CC(=NOCc4ccccc4)[C@H]3CC[C@H]2C(=O)N1C[C@@H]1CCCO1", 0.432),
    ("CCCC=C(CCC)[C@@H](NC(=O)c1ccc(-c2ccccc2)cc1)c1ccc(C(=O)OC)cc1", 0.185),
    ("O=C1C[C@@H](O)[C@@H](O)[C@@H]2[C@@H]3C(=O)N(c4ccc(F)cc4F)C(=O)[C@@H]3CC[C@@H]12", 0.234),
    ("CN1C(=O)C2C(C1=O)C1C=C(CCCO)C2C(c2ccc(CN3CCCC3)cc2)N1C (stereo not drawn)", -0.221),
]

---

test: FRG1 promoter luciferase signal modulators, primary screen, FRG1 inhibition for FSHD, cell-based, C2C12 myotubes, firefly/Renilla luciferase, luminescence (AID 1084); conditions: higher = more signal, called active from +8 up or from −8 down

# smiles.text, z-score
records = [
    ("CCCCCCc1nc(CCCc2cc3c(c(CCCCCC)n2)[Si](C(C)C)(C(C)C)O[C@H]3c2ccccc2)cc2c1[Si](C(C)C)(C(C)C)O[C@H]2c1ccccc1", -0.364),
    ("CCOC(=O)NN=C1C[C@@H](O)[C@@H](O)[C@@H]2[C@@H]3C(=O)N(C(C)(C)C)C(=O)[C@@H]3CC[C@@H]12", -0.0445),
    ("C=C(/C(=C/C[C@@H](OC(=O)c1ccncc1)c1ccc(OCCO)cc1)c1cnc2ccccc2c1)C(C)C", -2.27),
    ("C[C@@H]1C=CCC(=O)OC[C@H](C)C(=O)N[C@@H](C)C(=O)OC1", -0.98),
    ("CO[C@@H]1COC(=O)CC=C[C@@H](C)COC(=O)[C@H](COCc2ccccc2)NC(=O)CC=C[C@H]1C", -1.05),
    ("COc1ccccc1CN1C(=O)c2ccccc2[C@@H](C(=O)NCC(F)(F)F)[C@@H]1c1ccc(CO)cc1", -3),
    ("O=C1[C@H]2[C@H]3[C@H](O)[C@H](O)CC(=NOCc4ccccc4)[C@@H]3CC[C@H]2C(=O)N1Cc1ccccc1", 0.341),
]

---

system: Noggin (protein binding on small-molecule microarray); test: Noggin binders on small-molecule microarray, primary screen, biochemical, 635/667 nm fluorescence (AID 1095); settings: 635 nm fluorescence, higher = more signal;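 also: score merges 667 nm feature fluorescence with signal to noise over triplicate slides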

# molecule, composite z-score
data = [
    ("O=C1CCCC=C1C(O)CCOCc1ccccc1 (centres undefined)", 0.355),
    ("C=C(/C(=C/C[C@@H](OC(=O)c1ccncc1)c1ccc(OCCO)cc1)c1cnc2ccccc2c1)C(C)C", 1.65),
    ("O=C1[C@H]2[C@H]3[C@H](O)[C@H](O)CC(=NO[C@@H]4O[C@H](CO)[C@@H](O)[C@H](O)[C@H]4O)[C@@H]3CC[C@H]2C(=O)N1Cc1ccc2c(c1)OCO2", 0.388),
    ("C=C(CCCC)C(=O)CC[C@@H](OC(C)=O)c1cccc(OCCO)c1", 1.54),
]

---

# maps each entry to its composite z-score
assay: binders of probe aFSTL3 on microarray, primary screen, stem cell growth factor project, biochemical, small-molecule microarray, fluorescence 635/667 (AID 1064); settings: higher = more signal;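 also: measures binding of the biotinylated anti-FSTL3 antibody to printed compounds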
recorded.endpoint: composite z-score

# compound, value
measured = [
    ("CC(=O)OC[C@H]1O[C@@H](ON=C(C)CCN2CCc3nc(-c4ccccc4)c(-c4ccccc4)cc3C2)[C@H](OC(C)=O)[C@@H](OC(C)=O)[C@@H]1OC(C)=O", -0.209),
    ("COCCCNC(=O)[C@@]1(Sc2ccc(C)cc2)CC(=O)N(Cc2ccccc2)[C@@H]1c1ccc(CO)cc1I", 0.438),
    ("O=C1C[C@@H](O)[C@@H](O)[C@@H]2[C@@H]3C(=O)N(c4cccc(Oc5ccccc5)c4)C(=O)[C@@H]3CC[C@@H]12", -0.557),
    ("CC(C)=C1C(=O)C(c2ccccc2)=C2CN3C(=O)N(CCc4ccccc4)C(=O)[C@]3(Cc3ccc(F)cc3)[C@H]21", 0.565),
    ("COCCOC(=O)N1C(=O)[C@@]2(c3cc(C#CC4(O)CCCCCC4)ccc31)[C@H](C(=O)N1CCN(c3ncccn3)CC1)[C@H]1C(=O)O[C@H](c3ccccc3)[C@H](c3ccccc3)N1[C@@H]2c1ccc(OCCO)cc1", -0.266),
    ("CCN1C(=O)[C@H]2[C@H]3[C@H](O)[C@H](O)CC(=NOCc4ccccc4)[C@@H]3CC[C@H]2C1=O", -0.239),
    ("O=C1CCCC=C1C(O)CCOCc1ccccc1 (stereo not given)", -0.149),
    ("COCCCNC(=O)[C@]1(CCC(=O)OC(C)(C)C)N=C(c2ccc(OCCCO)cc2)O[C@@H]1c1ccccc1N=[N+]=[N-]", 0.0081),
    ("CO[C@H]1COC(=O)[C@H](C)COC(=O)CC=C[C@@H](C)[C@H](OC)COC(=O)CC=C[C@@H]1C", -0.654),
    ("O=C1O[C@@H](c2ccccc2)[C@@H](c2ccccc2)N2[C@@H](c3ccc(O)cc3)[C@]3(C(=O)Nc4ccccc43)[C@@H](C(=O)O)[C@H]12", -0.149),
    ("CCOC(=O)CCN1C(=O)[C@H]2[C@H]3[C@H](O)C=CC(=O)[C@@H]3CC[C@H]2C1=O", -0.619),
    ("CC(C)CON=C1C[C@@H](O)[C@@H](O)[C@@H]2[C@@H]3C(=O)N(Cc4ccccc4)C(=O)[C@@H]3CC[C@@H]12", -0.404),
    ("C#CCCCON=C1C[C@@H](O)[C@@H](O)[C@@H]2[C@@H]3C(=O)N([C@@H](C)c4ccccc4)C(=O)[C@@H]3CC[C@H]12", -0.196),
    ("Cc1ccc(F)cc1S(=O)(=O)N[C@@H]1CCN(Cc2ccc(CC(C)C)cc2)C1", -0.433),
    ("O=C1[C@H]2[C@H]3[C@H](O)[C@H](O)CC(=NOCc4ccccc4)[C@@H]3CC[C@H]2C(=O)N1Cc1ccccc1", -0.226),
]
